Field: concentration at 6 h. Provide a value for each of the molecules that follow.
- Assay info: Drug uptake in C57BL/6 mouse at 400 ug, ip measured after 6 hrs by UHPLC-MS/MS analysis
- Type: ADME, organism-based
- Protocol conditions: in vivo, dose 400 µg, read-out: Drug uptake
Answers are plain numbers, in ng/mL.

C[C@@H]([C@H]1CC[C@H]2[C@@H]3CC=C4C[C@@H](O)CC[C@]4(C)[C@H]3CC[C@]12C)[C@@H](O)Cc1ccccc1 = 110

# context switch: different molecule, same concentration at 6 h
Value of measured concentration at 6 h for the entry `CC(C)CC[C@H](O)[C@@H](C)[C@H]1CC[C@H]2[C@@H]3CC=C4C[C@@H](OS(=O)(=O)[O-])CC[C@]4(C)[C@H]3CC[C@]12C.[Na+]` : 65.2

* * *

- Assay info: Observed AUC infinity in C57BL/6 mouse at 400 ug, ip by UHPLC-MS/MS analysis
- Format: ADME, organism-based
- Protocol conditions: in vivo, dose 400 µg
Parameter measured: AUC(0-inf)
A bare number is not enough; add the unit after it.

Entry `CC(C)CC[C@H](O)[C@@H](C)[C@H]1CC[C@H]2[C@@H]3CC=C4C[C@@H](OS(=O)(=O)[O-])CC[C@]4(C)[C@H]3CC[C@]12C.[Na+]` ; AUC(0-inf) = 4800 ng·h/mL

* * *

- Assay info: Hepatic intrinsic clearance in human liver microsomes assessed per mg protein at 0.5 uM in presence of NADPH regenerating system by UHPLC-MS/MS method
- Format: ADME, Microsome
- Protocol conditions: read-out: CLH
Parameter measured: microsomal CLint at 0.5 µM (µL/min/mg)
Answers are plain numbers, in µL/min/mg.

// microsomal CLint at 0.5 µM lookup, molecule = `CC(C)CC[C@H](O)[C@@H](C)[C@H]1CC[C@H]2[C@@H]3CC=C4C[C@@H](OS(=O)(=O)[O-])CC[C@]4(C)[C@H]3CC[C@]12C.[Na+]` , result: 26.4

* * *

- Assay info: Drug uptake in C57BL/6 mouse at 400 ug, ip measured after 3 hrs by UHPLC-MS/MS analysis
- Type: ADME, organism-based
- Protocol conditions: in vivo, dose 400 µg, read-out: Drug uptake
Provide the reported concentration at 3 h of each item.
Answers are plain numbers, in ng/mL.

CC(C)CC[C@H](O)[C@@H](C)[C@H]1CC[C@H]2[C@@H]3CC=C4C[C@@H](OS(=O)(=O)[O-])CC[C@]4(C)[C@H]3CC[C@]12C.[Na+] = 363

concentration at 3 h recorded for this molecule, `C[C@@H]([C@H]1CC[C@H]2[C@@H]3CC=C4C[C@@H](O)CC[C@]4(C)[C@H]3CC[C@]12C)[C@@H](O)Cc1ccccc1` , is 109

* * *

Assign microsomal CLint at 0.5 µM to each entry below.
- Assay info: Hepatic intrinsic clearance in mouse liver microsomes assessed per mg protein at 0.5 uM in presence of NADPH regenerating system by UHPLC-MS/MS method
- Assay type: ADME, Microsome
- Protocol conditions: read-out: CLH
Answers are plain numbers, in µL/min/mg.

C[C@@H]([C@H]1CC[C@H]2[C@@H]3CC=C4C[C@@H](O)CC[C@]4(C)[C@H]3CC[C@]12C)[C@@H](O)Cc1ccccc1 = 45.8

As a next step, examine the molecule that follows.
Record `CC(C)CC[C@H](O)[C@@H](C)[C@H]1CC[C@H]2[C@@H]3CC=C4C[C@@H](OS(=O)(=O)[O-])CC[C@]4(C)[C@H]3CC[C@]12C.[Na+]` . Reported microsomal CLint at 0.5 µM: 17.2

* * *

- Assay info: Cmax in C57BL/6 mouse at 400 ug, ip by UHPLC-MS/MS analysis
- Format: ADME, organism-based
- Protocol conditions: in vivo, dose 400 µg
Kindly state Cmax for each of the entries shown.
Numbers only, in ng/mL.

C[C@@H]([C@H]1CC[C@H]2[C@@H]3CC=C4C[C@@H](O)CC[C@]4(C)[C@H]3CC[C@]12C)[C@@H](O)Cc1ccccc1 = 174

The record that follows has no Cmax shown yet.
Please fill in: Cmax reported for `CC(C)CC[C@H](O)[C@@H](C)[C@H]1CC[C@H]2[C@@H]3CC=C4C[C@@H](OS(=O)(=O)[O-])CC[C@]4(C)[C@H]3CC[C@]12C.[Na+]` = 3170

* * *

- Assay info: Drug uptake in C57BL/6 mouse at 400 ug, ip measured after 1 hr by UHPLC-MS/MS analysis
- Type: ADME, organism-based
- Protocol conditions: in vivo, dose 400 µg, read-out: Drug uptake
For each record, write down the corresponding concentration at 1 h.
One number for each entry, in ng/mL.

CC(C)CC[C@H](O)[C@@H](C)[C@H]1CC[C@H]2[C@@H]3CC=C4C[C@@H](OS(=O)(=O)[O-])CC[C@]4(C)[C@H]3CC[C@]12C.[Na+] = 3170

Entry under test: `C[C@@H]([C@H]1CC[C@H]2[C@@H]3CC=C4C[C@@H](O)CC[C@]4(C)[C@H]3CC[C@]12C)[C@@H](O)Cc1ccccc1` . Its concentration at 1 h was 68.9
